molecular target: human A1 receptor (Homo sapiens); assay: functional cAMP (HTRF) assay, recombinant CHO cells expressing human A1 receptor, forskolin, agonist CPA
Sequence (P30542 whole entry): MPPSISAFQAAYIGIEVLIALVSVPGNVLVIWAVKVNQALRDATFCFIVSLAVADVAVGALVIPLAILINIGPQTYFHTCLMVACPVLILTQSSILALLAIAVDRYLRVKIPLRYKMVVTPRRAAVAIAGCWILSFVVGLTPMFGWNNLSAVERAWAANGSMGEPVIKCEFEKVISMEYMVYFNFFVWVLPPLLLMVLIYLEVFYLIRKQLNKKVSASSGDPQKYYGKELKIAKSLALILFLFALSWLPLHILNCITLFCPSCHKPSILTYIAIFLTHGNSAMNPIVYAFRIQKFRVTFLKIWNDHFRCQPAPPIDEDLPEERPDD
pIC50: −log10 of the molar value.
assay_endpoint: pIC50

Below are worked cases with known answers.
COc1ccc(-c2ccccc2F)c2nc(NC(=O)N3CCC(C)(O)CC3)[nH]c12 [compound 218]    > 6.00
C#CCC1(O)CCN(C(=O)Nc2nc3c(-c4cnn(C)c4)ccc(OC)c3[nH]2)CC1 [compound 92]    < 6.00
COc1ccc(C2CCOCC2)c2nc(NC(=O)c3ccnc(N4CCC5(CCOC5)C4)c3)[nH]c12 (stereo not shown) [compound 119]    < 6.00

// next entry
Requested field: pIC50. Item: COc1ccc(N2CCOCC2)c2nc(NC(=O)c3cnn(C)c3)[nH]c12 [compound 136]
< 6.00
